Where do these numbers come from? They come from patent US20210238170A1.

Molecular target: human SGLT2 (Homo sapiens)
Construct: expressed in transfected cells
Sequence (P31639 1-672): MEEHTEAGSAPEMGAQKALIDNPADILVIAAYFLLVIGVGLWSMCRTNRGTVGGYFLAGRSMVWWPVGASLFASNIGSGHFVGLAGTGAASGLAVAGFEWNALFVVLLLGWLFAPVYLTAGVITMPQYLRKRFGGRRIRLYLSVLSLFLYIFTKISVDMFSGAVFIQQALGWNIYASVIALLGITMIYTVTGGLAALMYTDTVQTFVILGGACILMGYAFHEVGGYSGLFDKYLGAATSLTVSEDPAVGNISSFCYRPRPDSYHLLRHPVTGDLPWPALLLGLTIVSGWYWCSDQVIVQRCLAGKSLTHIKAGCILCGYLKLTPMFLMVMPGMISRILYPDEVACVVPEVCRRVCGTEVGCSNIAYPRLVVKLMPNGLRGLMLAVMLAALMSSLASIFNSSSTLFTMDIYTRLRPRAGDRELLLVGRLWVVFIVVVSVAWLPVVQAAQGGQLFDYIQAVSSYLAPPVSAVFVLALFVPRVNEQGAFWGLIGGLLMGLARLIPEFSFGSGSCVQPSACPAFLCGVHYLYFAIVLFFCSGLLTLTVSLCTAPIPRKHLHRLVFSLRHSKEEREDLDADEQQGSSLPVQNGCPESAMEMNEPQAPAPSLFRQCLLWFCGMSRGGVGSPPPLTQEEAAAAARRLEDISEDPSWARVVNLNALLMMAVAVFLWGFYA
Test: SGLT2 in vitro assay: Na-dependent 14C-AMG uptake in CHO-K1 cells stably expressing human SGLT2
Format: cell-based
Settings: CHO-K1 cells stably expressing human SGLT2; 14C-AMG uptake; compounds of formula (I) where R0 is fluoro
EXPERIMENTAL READOUT: IC50 (nM)

Look over these answered cases.
# GIVEN SMILES, UNITS LABEL, READOUT NUMBER
records = [
    ("OC[C@H]1O[C@@H](c2cc(Cc3ccc(C4CC4)cc3)c(C3CC3)cc2O)[C@H](O)[C@@H](O)C1(F)F", "nM", 44.9),
    ("OC[C@H]1O[C@@H](c2cc(Cc3ccc4c(c3)OCCO4)c(Cl)cc2O)[C@H](O)[C@@H](O)C1(F)F", "nM", 1.4),
    ("Cc1ccc(Cc2cc([C@@H]3O[C@H](CO)C(F)(F)[C@H](O)[C@H]3O)c(O)cc2Cl)cc1", "nM", 0.5),
    ("COc1cc(C)c(Cc2ccc(Cl)s2)cc1[C@@H]1O[C@H](CO)C(F)(F)[C@H](O)[C@H]1O", "nM", 4.5),
    ("CCc1cc(O)c([C@@H]2O[C@H](CO)C(F)(F)[C@H](O)[C@H]2O)cc1Cc1ccc(C2CC2)cc1", "nM", 3.1),
    ("Cc1cc(O)c([C@@H]2O[C@H](CO)C(F)(F)[C@H](O)[C@H]2O)cc1Cc1ccc(OC(F)F)cc1", "nM", 4.8),
    ("COc1cc(Cl)c(Cc2ccc(C)cc2)cc1[C@@H]1O[C@H](CO)C(F)(F)[C@H](O)[C@H]1O", "nM", 1.7),
    ("COc1cc(O)c([C@@H]2O[C@H](CO)C(F)(F)[C@H](O)[C@H]2O)cc1Cc1ccc(C2CC2)cc1", "nM", 1.9),
    ("[2H]C([2H])(c1ccc2c(c1)OCCO2)c1cc([C@@H]2O[C@H](CO)C(F)(F)[C@H](O)[C@H]2O)ccc1CC", "nM", 108),
    ("COc1cc(Cl)c(Cc2ccc3c(c2)OCC3)cc1[C@@H]1O[C@H](CO)C(F)(F)[C@H](O)[C@H]1O", "nM", 0.5),
]

(A) COc1ccc(Cc2cc([C@@H]3O[C@H](CO)C(F)(F)[C@H](O)[C@H]3O)c(O)cc2C)cc1
(B) COc1cc(O)c([C@@H]2O[C@H](CO)C(F)(F)[C@H](O)[C@H]2O)cc1Cc1ccc2c(c1)OCCO2
Just tell me: smaller IC50 value, A or B ? Lab log: write the label of the selected item as the result.
A

(P) CCc1csc(Cc2cc([C@@H]3O[C@H](CO)C(F)(F)[C@H](O)[C@H]3O)c(O)cc2C)c1
(Q) COc1cc(O)c([C@@H]2O[C@H](CO)C(F)(F)[C@H](O)[C@H]2O)cc1Cc1ccc(OCF)cc1
Just tell me: smaller IC50 value, P or Q ? Lab log: write the label of the selected item as the result.
P

(A) Cc1cc(OCC#N)c([C@@H]2O[C@H](CO)C(F)(F)[C@H](O)[C@H]2O)cc1Cc1cc2ccccc2s1
(B) CCc1cc(O)c([C@@H]2O[C@H](CO)C(F)(F)[C@H](O)[C@H]2O)cc1Cc1ccc(OC)cc1
Which has the higher IC50, A or B ? Lab log: write the label of the selected item as the result.
A
